system: MOLT-3; test: Cytotoxicity against Homo sapiens (human) MOLT3 cells assessed as inhibition of cell growth after 3 days by crystal violet staining; format: functional, cell-based; conditions: MOLT-3, 72 h
Measured pIC50 of individual entries
// pIC50: -log10(molar conc.)

## Task Bench note: what pIC50 did O=C(NCCc1ccccn1)Nc1ccc(Cl)cc1 show?
## Result 4.17

## Task Which pIC50 value is on record for O=[N+]([O-])c1ccc(NC(=S)NCc2ccccn2)cc1 ?
## Result 4.27

## Task Tell me the measured pIC50 of S=C(NCCc1ccccc1)Nc1ccc(Cl)cc1 , please.
## Result 4.60

## Task For the molecule S=C(NCc1ccccn1)Nc1ccc(Cl)cc1 , what pIC50 is on record?
## Result 3.93

## Task Need pIC50 of O=[N+]([O-])c1ccc(NC(=S)NCc2cccc(CNC(=S)Nc3ccc([N+](=O)[O-])cc3)c2)cc1 , thanks.
## Result 5.47

Now consider a different molecule.
## Task Fill in the blank: the reported pIC50 of COc1ccc(CCNC(=O)Nc2ccc(Cl)cc2)cc1OC is ____.
## Result 4.30

Reference source for all entries: ChEMBL document CHEMBL3046651
